EXPERIMENTAL SYSTEM: ELAV-like protein 1 (Homo sapiens, UniProt Q15717)
Sequence (Q15717 whole entry): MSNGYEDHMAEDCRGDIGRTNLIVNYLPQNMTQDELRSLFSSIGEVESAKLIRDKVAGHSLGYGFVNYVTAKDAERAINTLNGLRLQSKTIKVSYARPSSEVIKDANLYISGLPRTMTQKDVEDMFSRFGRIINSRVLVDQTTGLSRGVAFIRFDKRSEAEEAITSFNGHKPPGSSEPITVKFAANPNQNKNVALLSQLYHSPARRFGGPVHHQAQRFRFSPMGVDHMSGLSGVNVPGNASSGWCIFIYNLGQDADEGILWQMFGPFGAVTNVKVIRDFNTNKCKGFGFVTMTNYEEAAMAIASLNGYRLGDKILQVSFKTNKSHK
PROCEDURE SUMMARY: Binding affinity to human full length recombinant His-tagged HuR expressed in Escherichia coli […] assessed as inhibition of interaction with single-strand Bi-AU RNA probe by AlphaScreen assay
Catalogue of Ki values

For orientation, consider the following solved cases.
MOLECULE: O=C1C=Cc2c(c(-c3ccccc3)cn2S(=O)(=O)c2cccc([N+](=O)[O-])c2)C1=O
Ki: > 100 nM

MOLECULE: O=C1C=C(c2ccccc2)c2c(c(-c3ccccc3)cn2S(=O)(=O)c2ccccc2)C1=O
Ki: > 100 nM

MOLECULE: COc1cccc(-c2cn(S(=O)(=O)c3ccccc3)c3c2C(=O)C(=O)C=C3)c1
Ki: > 200 nM

Q: Identify the reported Ki for the following entry. `COc1ccc(-c2cn(S(=O)(=O)c3ccccc3)c3c2C(=O)C(=O)C=C3)cc1`
Result: > 200 nM

Q: In one line, give reported Ki of the entry `O=C1C=C(c2ccc([N+](=O)[O-])cc2)c2c(c(-c3ccccc3)cn2S(=O)(=O)c2ccccc2)C1=O` .
Result: > 100 nM

Q: Give Ki for `CN(C)c1ccc(-c2cn(S(=O)(=O)c3ccccc3)c3c2C(=O)C(=O)C=C3)cc1`
Result: > 100 nM

Q: Please give measured Ki of the following entry: `O=C1C=Cc2c(c(-c3ccccc3)cn2S(=O)(=O)c2cccc(F)c2)C1=O`
Result: > 100 nM

Q: Hello, please tell me recorded Ki for this one: `CC1=CC(=O)C(=O)c2c(-c3ccccc3)cn(S(=O)(=O)c3ccccc3)c21`
Result: > 200 nM

Q: Consider the molecule Cc1cccc2c3c(ccc12)C1=C(C(=O)C3=O)[C@@H](C)CO1 [DIHYDROTANSHINONE I] and give its recorded Ki.
Result: 50 nM

Q: Answer with the recorded Ki for the molecule listed here: O=C1C(=O)c2c(-c3ccccc3)cn(S(=O)(=O)c3ccccc3)c2C2=C1C1C=CC2CC1 (stereo not given)
Result: > 300 nM

----------
Tested on: PANC-1
PROCEDURE SUMMARY: Cytotoxicity against human PANC1 cells assessed as decrease in cell viability after 72 hrs by OZBlue assay
MEASUREMENT CONTEXT: PANC-1, 72 h
# pIC50 per entry
Kindly note that pIC50 refers to -log10 of the concentration in mol/L and answer with the value alone.

COMPOUND: O=C1C=C(Sc2ccccc2)c2c(c(-c3ccccc3)cn2S(=O)(=O)c2ccccc2)C1=O
pIC50: 4.60

Q: Report pIC50 for Cc1cccc2c3c(ccc12)C1=C(C(=O)C3=O)[C@@H](C)CO1 [DIHYDROTANSHINONE I]
Result: 5.54

Q: For the compound `O=C1C=Cc2c(c(-c3ccccc3)cn2S(=O)(=O)c2ccccc2)C1=O` , report pIC50.
Result: 4.58

Q: Quick one: give measured pIC50 for `COc1ccc(SC2=CC(=O)C(=O)c3c(-c4ccccc4)cn(S(=O)(=O)c4ccccc4)c32)cc1`
Result: 4.87

Q: In one line, give reported pIC50 of the entry `Cc1ccccc1-c1cn(S(=O)(=O)c2ccccc2)c2c1C(=O)C(=O)C=C2` .
Result: 4.59
